Assay Details: GFP drop in mixed WT/humanized-ribosome E. coli culture – GFP/RFP fluorescence, OD600, single point, bacterial rRNA inhibitor project, primary screen (AID 720706)
Experimental Parameters: E. coli WT GFP vs humanized-ribosome RFP mutants, 24 h; active compounds read low, DMSO median 0, no signal -100
Among all 350,000 compounds or so, about 5,500 (1.6%) were called active. This is one part of a sample in which actives are shown more often than they occur.
Metric Name: GFP signal change (wild-type ribosome) (%)
Numbers only; they are read as %.

Illustrative cases are given below, each with its answer.
CCc1nc2ccccc2c(C(=O)OC2CCCCC2=O)c1C (centres undefined)
-34.4
CCc1nc2ccccc2c(C(=O)NCc2ccc(OC)cc2)c1C
-3.42
Cc1cc(C(=O)Nc2ccc3c(c2)C(=O)N(C)[C@@H]2CC[C@H](CC(=O)NC4CCCC4)O[C@@H]2CO3)no1
1.76
O=[N+]([O-])c1ccccc1NCc1ccccc1Cl
-29.2
C[C@H]1CN(C)C(=O)c2cccc(N(C)C)c2O[C@@H]1CN(C)C
-0.435

Task: Reported GFP signal change (wild-type ribosome), molecule CCc1c(C)c2ccc(OC3CCCCC3=O)cc2oc1=O (centres undefined) : ____
Result: 1.77

Task: Continue with O=C(NCCNc1ccccc1[N+](=O)[O-])c1ccccc1F
Result: -8.66

Task: Continue with COc1ccc(CCNC(=O)CN(c2ccccc2)S(C)(=O)=O)cc1
Result: 4.81

Task: Continue with CC(C)(C)[S@](=O)N1Cc2cc(C(=O)N[C@@H]3CCN(Cc4ccccc4)C3)nc(-c3cccc(-c4ccncc4)c3)c2[C@@H]1CCO
Result: 1.13

Task: Continue with CCC(=O)N(C)C[C@@H]1Oc2cc(C#CCOC)ccc2S(=O)(=O)N([C@@H](C)CO)C[C@@H]1C
Result: 2.66

Task: Continue with O=C(COc1ccc(Cl)cc1Cl)N/N=C/c1ccccn1
Result: -7.74

Task: Continue with C[C@@H](C(=O)N(C)C[C@H]1OCc2ccccc2-c2c(n(C)c3ccccc23)C(=O)N([C@@H](C)CO)C[C@@H]1C)c1ccccc1
Result: -2.7

Task: Continue with Cc1ccccc1S(=O)(=O)NC(=O)C1(C)CCN1C(=O)C1(c2ccc(Cl)cc2)CC1 (centres undefined)
Result: -15.3

Task: Continue with COc1ccc(NC(=O)Nc2ccc3c(c2)C(=O)N([C@@H](C)CO)C[C@@H](C)[C@@H](CN(C)Cc2ccncc2)OCCCC[C@@H](C)O3)cc1
Result: -3.01

Task: Continue with Cc1ccccc1S(=O)(=O)NC(=O)C1(C)CCN1C(=O)C1(c2ccccc2)CCCC1 (centres undefined)
Result: -6.4

Task: Continue with Cc1ccc(S(=O)(=O)NCCC(c2ccccc2)c2ccccc2)cc1C(=O)O
Result: -40.5
